The reported numbers originate from the supplement of paper PMC8728848.

Answer each item with its documented glycan array binding signal (z-score).
Target or system: GalNAc(b1-4)GlcNAc(b1-3)GalNAc(b1-4)GlcNAc
Assay: glycan array binding signal (z-score within array); higher = stronger binding
Stated conditions: glycan notation: IUPAC condensed, linker removed
Shown is part of a subset that was picked to be rich in the strongest signals.

Task item: Which glycan array binding signal (z-score) value is on record for KISKRILTGKK [NK11 (Sus scrofa)] ?
Reply: -0.419

Task item: Which glycan array binding signal (z-score) value is on record for SJA (Sophora japonica) (protein) FLGLFNSGGYSSSYQIVAVEFDTYINEWDPKTRHIGIDINSINSTKTVTWGWENGEVAIVLISYKAATETLTVSLTYPSSQTSYILSAAVDLKSILPEWVRIGF ?
Reply: 8.25

Task item: Which glycan array binding signal (z-score) value is on record for rCNL (Clitocybe nebularis), B2ZRS9 (protein) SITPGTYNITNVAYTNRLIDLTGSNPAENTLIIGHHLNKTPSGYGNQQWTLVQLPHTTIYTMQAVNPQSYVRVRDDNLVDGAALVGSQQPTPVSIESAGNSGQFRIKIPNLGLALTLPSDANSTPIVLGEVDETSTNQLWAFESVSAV ?
Reply: 7.74

Task item: Which glycan array binding signal (z-score) value is on record for Erv41-EDTA (Saccharomyces cerevisiae), Q04651 (protein) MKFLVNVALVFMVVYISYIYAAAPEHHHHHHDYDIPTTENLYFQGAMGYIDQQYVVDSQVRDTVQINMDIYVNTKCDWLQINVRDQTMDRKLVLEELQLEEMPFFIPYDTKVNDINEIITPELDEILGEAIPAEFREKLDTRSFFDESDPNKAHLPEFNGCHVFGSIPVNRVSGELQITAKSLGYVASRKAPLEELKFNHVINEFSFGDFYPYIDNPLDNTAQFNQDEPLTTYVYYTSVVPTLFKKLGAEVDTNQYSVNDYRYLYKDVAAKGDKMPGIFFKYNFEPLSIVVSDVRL ?
Reply: -0.339
